The reported numbers originate from PubChem BioAssay AID2685.

Assay: qHTS Assay for Lipid Storage Modulators in Drosophila S3 Cells;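 also: cells counted by Cell Tracker Red CMTPX staining in the red channel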
Settings: BODIPY lipid droplet fluorescence, 18-24 h, cells fed with added oleic acid; measured here: cell count max response
The campaign covered roughly 320,000 compounds. About 2,100 (0.66%) were called active. About 53% were inconclusive and are not listed. What follows is part of a selection rich in actives, with near analogues and random picks from the rest.
Quick list: cell number change per entry.

Compound: CC(=O)NC(Cc1cccc(C)c1)C(=O)NC1CCN(C(=O)NCc2ccccc2)CC1 (stereo not given)
cell number change: 5.24%
//
Compound: CC(=O)NC(Cc1ccc(C)cc1)C(=O)NC1CCN(C(=O)NCc2ccccc2)CC1 (stereo not given)
cell number change: 13.3%
//
Compound: COc1cccc(CC(NC(C)=O)C(=O)NC2CCN(C(=O)Nc3ccc(C)cc3)CC2)c1 (stereo not given)
cell number change: -3.63%
//
Compound: COc1ccc(CC(NC(C)=O)C(=O)NC2CCN(C(=O)c3cccc(Cl)c3)CC2)cc1OC (stereo not given)
cell number change: -1.21%
//
Compound: O=C(Cc1ccccc1)NC1CCN(C(=O)NCc2ccccc2)CC1
cell number change: -0.661%
